Parameter: IC50. Scope: all listed entries.
- Tested on: Neuro-2A cells
- measurement_protocol: Neurotoxicity test, MTT-dye reduction assay
- Assay type: cell-based, Murine
- conditions: Mus musculus, N2a, 72-h incubation
Number only, in µM; omit the unit.

Worked set:
| compound | tested_system | IC50 [µM] |
| --- | --- | --- |
| COc1ccc(/C=C/C(=O)c2cccc(CN3CC[C@@]45C=C[C@H](O)C[C@@H]4Oc4c(OC)ccc(c45)C3)c2)cc1 [8b] | Neuro-2A cells | 28.9 |
| COc1ccc2c3c1O[C@H]1C[C@@H](O)C=C[C@@]31CCN(Cc1cccc(C(=O)/C=C/c3ccc(C)c(C)c3)c1)C2 [8h] | Neuro-2A cells | 25 |
| COc1ccc2c3c1O[C@H]1C[C@@H](O)C=C[C@@]31CCN(CCCCC(=O)/C=C/c1cccc(C)c1)C2 [4g] | Neuro-2A cells | 23.7 |
| COc1ccc2c3c1O[C@H]1C[C@@H](O)C=C[C@@]31CCN(CCCCC(=O)/C=C/c1ccc(C)c(C)c1)C2 [4h] | Neuro-2A cells | 21.9 |
| COc1cccc(/C=C/C(=O)CCCCN2CC[C@@]34C=C[C@H](O)C[C@@H]3Oc3c(OC)ccc(c34)C2)c1 [4c] | Neuro-2A cells | 24.1 |

Incoming: Any idea what IC50 was measured for COc1ccc(/C=C/C(=O)CCCCN2CC[C@@]34C=C[C@H](O)C[C@@H]3Oc3c(OC)ccc(c34)C2)cc1 [4b] ?
Outgoing: 52.5

Incoming: Subsequent entry: COc1cc(/C=C/C(=O)CC(=O)/C=C/c2ccc(O)c(OC)c2)ccc1O [CU, reference compound]
Outgoing: 26.3

====

Parameter: Times More Active Than GAL. Scope: all listed entries.
- tested_system: eeAChE (Electrophorus electricus AChE) (Electrophorus electricus, UniProt O42275)
- Sequence (O42275 24-633): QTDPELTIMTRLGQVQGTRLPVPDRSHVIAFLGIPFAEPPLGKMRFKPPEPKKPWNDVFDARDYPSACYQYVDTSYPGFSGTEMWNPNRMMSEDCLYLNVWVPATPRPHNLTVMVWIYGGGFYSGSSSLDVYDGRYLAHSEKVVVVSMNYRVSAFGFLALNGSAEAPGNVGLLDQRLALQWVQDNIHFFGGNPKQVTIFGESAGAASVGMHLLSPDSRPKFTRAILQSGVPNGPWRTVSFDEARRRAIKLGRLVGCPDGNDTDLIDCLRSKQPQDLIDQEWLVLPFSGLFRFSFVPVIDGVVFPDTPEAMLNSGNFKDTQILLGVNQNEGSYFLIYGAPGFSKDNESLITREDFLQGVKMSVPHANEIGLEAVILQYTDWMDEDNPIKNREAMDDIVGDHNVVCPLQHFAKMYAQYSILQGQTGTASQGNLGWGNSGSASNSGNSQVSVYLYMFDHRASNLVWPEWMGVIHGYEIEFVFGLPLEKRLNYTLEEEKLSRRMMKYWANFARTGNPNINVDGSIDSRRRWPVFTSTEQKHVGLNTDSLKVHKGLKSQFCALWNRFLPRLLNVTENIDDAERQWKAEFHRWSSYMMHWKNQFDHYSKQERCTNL
- measurement_protocol: biochemical
Answer with a number only.

Worked set:
| compound | experimental_value |
| --- | --- |
| COc1ccc2c3c1O[C@H]1C[C@@H](O)C=C[C@@]31CCN(CCCCC(=O)/C=C/c1ccc3c(c1)OCO3)C2 [4e] | 98 |
| COc1ccc2c3c1O[C@H]1C[C@@H](O)C=C[C@@]31CCN(CCCCC(=O)/C=C/c1ccccc1)C2 [4a] | 75 |

Incoming: Any idea what Times More Active Than GAL was measured for COc1ccc(/C=C/C(=O)CCCCN2CC[C@@]34C=C[C@H](O)C[C@@H]3Oc3c(OC)ccc(c34)C2)cc1 [4b] ?
Outgoing: 186

This collection of values is drawn from paper PMC7435983.
